Just for reference, patent US20060128737A1 is where these values come from.

MEASURED ON: rat androgen receptors (rat AR) (Rattus norvegicus)
Construct: from tissue; host or cells: prostate of orchiectomized 11-week-old male SD rats (cytosolic supernatant of homogenate)
Sequence (P15207 whole entry S389L): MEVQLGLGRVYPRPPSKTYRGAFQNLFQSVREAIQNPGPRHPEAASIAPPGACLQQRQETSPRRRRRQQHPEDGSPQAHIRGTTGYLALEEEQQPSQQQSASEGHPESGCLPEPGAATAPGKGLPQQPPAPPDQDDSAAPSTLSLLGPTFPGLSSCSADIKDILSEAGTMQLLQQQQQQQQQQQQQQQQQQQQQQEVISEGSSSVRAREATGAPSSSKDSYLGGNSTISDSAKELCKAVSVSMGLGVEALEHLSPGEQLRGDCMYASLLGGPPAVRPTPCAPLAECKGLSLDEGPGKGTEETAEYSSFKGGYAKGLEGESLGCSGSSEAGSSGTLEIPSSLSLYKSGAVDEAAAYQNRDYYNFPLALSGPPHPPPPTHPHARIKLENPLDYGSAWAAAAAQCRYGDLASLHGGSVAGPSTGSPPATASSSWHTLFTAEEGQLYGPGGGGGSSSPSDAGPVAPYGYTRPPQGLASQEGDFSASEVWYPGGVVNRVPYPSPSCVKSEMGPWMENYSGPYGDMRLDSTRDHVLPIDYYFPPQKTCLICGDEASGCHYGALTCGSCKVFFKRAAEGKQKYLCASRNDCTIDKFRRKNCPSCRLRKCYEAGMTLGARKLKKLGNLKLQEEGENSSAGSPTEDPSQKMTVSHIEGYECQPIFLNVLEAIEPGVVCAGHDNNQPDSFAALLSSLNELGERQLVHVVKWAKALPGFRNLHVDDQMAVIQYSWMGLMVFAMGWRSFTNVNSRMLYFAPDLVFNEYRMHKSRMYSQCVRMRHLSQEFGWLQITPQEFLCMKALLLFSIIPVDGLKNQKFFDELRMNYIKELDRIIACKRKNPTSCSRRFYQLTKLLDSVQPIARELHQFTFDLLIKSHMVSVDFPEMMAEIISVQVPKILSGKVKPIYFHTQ
PROTOCOL DETAILS: Test for competitive binding to rat androgen receptors (rat AR)
ASSAY CONTEXT: RBA=100×(IC50 of hydroxyflutamide)/(IC50 of compound); 3H-testosterone, rat prostate AR fraction
Protocol: Preparation of a rat AR fraction: Prostates were harvested into ice-cooled ET buffer (10 mM Tris, 1 mM EDTA, 5 mM DTT, 10 mM sodium molybdate, pH 7.4) 3 days after orchiectomy in 11-week-old male SD rats. […] Binding test: ^3H-testosterone (hereinafter referred to as ^3H-T) was diluted with ET buffer. […] The mixture was stirred, allowed to stand, and measured for ^3H radioactivity with a liquid scintillation counter. […]
MEASURE NAME: RBA (Relative Binding Affinity)
Form rule: numeric answer, no unit written next to it.

CC(C)(CNC(=O)c1ccc(OC(F)(F)F)cc1)[C@H]1Nc2ccc(C#N)cc2[C@H]2OCC[C@H]21 (relative stereo); 58

Form field: RBA (Relative Binding Affinity) recorded for CCOc1ccc(C(=O)NCC(C)(C)[C@H]2Nc3ccc([N+](=O)[O-])cc3C3OCC[C@H]32)cc1 (stereo partly drawn) with rat androgen receptors (rat AR) (Rattus norvegicus) (enter value)
161

Next entry: CC(C)(CNC(=O)c1ccc(Br)cc1)[C@H]1Nc2ccc([N+](=O)[O-])cc2C2OCC[C@H]21 (relative stereo)
94

Then this compound: CC(C)(O)C(=O)Nc1ccc([N+](=O)[O-])c(C(F)(F)F)c1 [Hydroxyflutamide, hydroxyflutamide, reference compound]
100

Also need COCC(=O)NCC(C)(C)[C@H]1Nc2ccc([N+](=O)[O-])cc2C2C=CC[C@H]21 (relative stereo) , thanks.
1076

What do you get for CCOc1ccc(C(=O)NCC(C)(C)[C@H]2Nc3ccc(C#N)cc3[C@H]3OCC[C@H]32)cc1 (relative stereo) ?
55
